Tested on: Morningglory
Experiment: post-emergence herbicidal activity, greenhouse
Assay type: in vivo
Settings: Table III; 2 WAT; 1.1 kg/h
Assay Metric: Plant Response Index (D)

- CCOC(=O)CNCP(=O)(O)O[Si](c1ccccc1)(c1ccccc1)C(C)(C)C [Ex. 7]: 2 (50-74% inhibition)
- CCCCOC(=O)CNCP(=O)(O)O[Si](c1ccccc1)(c1ccccc1)C(C)(C)C [Ex. 6]: 2 (50-74% inhibition)
- CC(C)OC(=O)CNCP(=O)(O)O[Si](c1ccccc1)(c1ccccc1)C(C)(C)C [Ex. 2]: 0 (0-24% inhibition)
- CC(C)(C)[Si](OP(=O)(O)CNCC(=O)OCCCl)(c1ccccc1)c1ccccc1 [Ex. 8, Hydrate]: 0 (0-24% inhibition)
- CC(C)OC(=O)CNCP(=O)(O[Si](c1ccccc1)(c1ccccc1)C(C)(C)C)O[Si](c1ccccc1)(c1ccccc1)C(C)(C)C [Ex. 1]: 0 (0-24% inhibition)

====

Property: Plant Response Index (E); scope: individual compounds
Tested on: Common Lambsquarters
Experiment: post-emergence herbicidal activity, greenhouse
Assay type: in vivo
Settings: Table II; 2 WAT; 11.2 kg/h; formulated immediately prior to treatment
Assay Metric: Plant Response Index (E)

- CC(C)(C)[Si](C)(C)OP(=O)(CNCC(=O)OCCc1ccccc1)O[Si](C)(C)C(C)(C)C [Ex. 10, Hydrate]: 3 (75-99% inhibition)
- CC(C)OC(=O)CNCP(=O)(O)O[Si](c1ccccc1)(c1ccccc1)C(C)(C)C: 3 (75-99% inhibition)
- CC(C)OC(=O)CNCP(=O)(O[Si](c1ccccc1)(c1ccccc1)C(C)(C)C)O[Si](c1ccccc1)(c1ccccc1)C(C)(C)C: 0 (0-24% inhibition)
- CC(C)(C)[Si](C)(C)OC(=O)CNCP(=O)(O[Si](C)(C)C(C)(C)C)O[Si](C)(C)C(C)(C)C: 0 (0-24% inhibition)

====

Tested on: Morningglory
Assay: post-emergence herbicidal activity, greenhouse
Format: in vivo
Conditions: Table II; 2 WAT; 5.6 kg/h; formulated in anhydrous tetrahydrofuran
Assay Metric: Plant Response Index (D)

* CCCCOC(=O)CNCP(=O)(O)O[Si](c1ccccc1)(c1ccccc1)C(C)(C)C | 1 (25-49% inhibition)
* CCCCOC(=O)CNCP(=O)(O)O[Si](C)(C)C(C)(C)C | 1 (25-49% inhibition)
* CCOC(=O)CNCP(=O)(O)O[Si](c1ccccc1)(c1ccccc1)C(C)(C)C | 2 (50-74% inhibition)
* CC(C)(C)[Si](OP(=O)(O)CNCC(=O)O)(c1ccccc1)c1ccccc1 | 1 (25-49% inhibition)

====

Tested on: Morningglory
Test: post-emergence herbicidal activity, greenhouse
Format: in vivo
Conditions: Table II; 4 WAT; 11.2 kg/h; formulated immediately prior to treatment
Property: Plant Response Index (D); scope: individual compounds
Assay Metric: Plant Response Index (D)

- CC(C)(C)[Si](C)(C)OP(=O)(CNCC(=O)OCCc1ccccc1)O[Si](C)(C)C(C)(C)C [Ex. 10, Hydrate]: 2 (50-74% inhibition)
- CC(C)(C)[Si](C)(C)OC(=O)CNCP(=O)(O[Si](C)(C)C(C)(C)C)O[Si](C)(C)C(C)(C)C: 2 (50-74% inhibition)
- CC(C)OC(=O)CNCP(=O)(O)O[Si](c1ccccc1)(c1ccccc1)C(C)(C)C: 3 (75-99% inhibition)
- CC(C)OC(=O)CNCP(=O)(O[Si](c1ccccc1)(c1ccccc1)C(C)(C)C)O[Si](c1ccccc1)(c1ccccc1)C(C)(C)C: 2 (50-74% inhibition)
